- assay.procedure: yeast display, Sf9 membrane polyspecificity reagent, FACS + sequencing; frameworks hold sequencing errors
assay.readout: polyreactivity (PSR sort gate)

Examples from the recorded data:
In: What value of measured polyreactivity (PSR sort gate) is listed for QVQLVESLGGLLHAGGSLRLSCGASGSIFGSNALGWYRQAPGKERELVAAINYSGGSTTYADSVKGRFTISRDNAKNTVYLQMTSLKPEDTAVYYCNADVLYQFDEGVWSDYWGQGTQVTVSS ?
Out: low polyreactivity

In: Can you look up the measured polyreactivity (PSR sort gate) of QVQLVESGGGLVQAGGSLRLSCAASGNIFPSYAMGWYRQAPGKERELVASINFSDGYTSYADSVKGRFTISRDNAKNTVYLQMNSLKPEDTAVYNCNADVWYYYYGFKGEEDYWGQGTQVTVSS for me?
Out: low polyreactivity

In: Returns the measured polyreactivity (PSR sort gate) for the input sequence. Input: QVQLVESGGGLVQAGGSLRLSWAASGRIFYGYTMGWYRQAPGKERELVASITIRGSRTYYADSVKGRCTISRDNAKNTVYLQINSLKPEDTAVYYCAADFVPARTVHRYDYWGQGTQVTVSS
Out: low polyreactivity

In: Recorded polyreactivity (PSR sort gate) for QVQLVESGGGLVQAGGSLRLSCAASGIIFYPYAMGWYRQAPGKERELVAAISQSGGTTSYADSVKGRFTISRDNAKNTVYLQMNSLKPEDTAVYYCARRVSTRKRYYYWGQGTQVTVSS , please?
Out: high polyreactivity

# batch: return polyreactivity (PSR sort gate) for each of the 8 sequences below
1. QVQLVESGGGLVQAGGSLRLSCAASGIIFGRYARGWYRQAPGKDRELVATISYRGGRTNYADSVKGRFTISRDNAKNTVYLQSNSLKPEDTAVYDCAAPHFSYSGGTHDYWGQGTQVTVSS
2. QVQLVESGGGLVQAGGSLRLSCAASGFTFWWYAMGWYRQAPGKERELVAAISSGGSTNYADSVKGRFTISRDNAKNTVYLQMNSLKPEDTAVYYCNALGVGHSGFTKFSRYYYWGQGTQVTVSS
3. QVQLQESGGGLVQAGGSLRLSCAASGTISQEDCMGWYRQATGKQREFVAAIGLGSNTNYADSLKGRFTISRDNAKNTVYLLMNSLKPEDTAVYYCAVSVWQYSDHVYRGQGTQVTVSS
4. QVQLVESGGGLVQAGGSHRLSCAASGSTLSSYAMGWYRQAPGKERELVAAISSSSGSTYYADSVKGRFTISRDNAKNTVYLQMNSLKPEDTAVYYCAADFRYWGQGTQVTVSS
5. QVQLVESGGGLVQAGGSLRLSCAASGRTFRYYAMGWYRQPPGKERELVATITGSGGSTYYADSVKGRFTISRDNAKNTVYVQMNSLKPEDTAVYDCNARKVRYPYRWYDYWGQGTQVTVSS
6. QVQLVESGGGLVQAGGSLRLSCAASGSIFRGYAMGWYRQAPGKERELVAAITSSAGSTYYADSVKGRFTISRDNAKNTVYLQMNSLKPEDTAVYYCNKYPRASRRGFDYWGQGTQVTVSS
7. QVQLVESGGGLVQAGGSLRLSCAASGFTFVAYAMGWYRQAPGKERELVAAITWSGSRTYYADSVKGRFTISRDNAKNTVYLQMNSLKPEDTAVYYCAARKTEGHYGYWGQGTQVTVSS
8. QVQLEESCGGLVQAGGRLRLSCAASGSIFRFNVMGWYRHAPGKERDLVAAITRGDSTNYADSVKGRFTISRDNAKITVYLQMNILIQDDSAVYYCAAGYYYYLRDHDYWGQGTQVTVSS

Out:
1: high polyreactivity; 2: high polyreactivity; 3: low polyreactivity; 4: low polyreactivity; 5: high polyreactivity; 6: high polyreactivity; 7: high polyreactivity; 8: low polyreactivity
